Tested on: L1210 leukemia ip in BDF1 mice, survival T/C
protocol_text: NCI In Vivo Anticancer Drug Screen. Data for tumor model L1210 Leukemia (intraperitoneal) in B6D2F1 (BDF1) mice
experimental_conditions: endpoint: mean survival time; dose: 12.5 mg/kg/injection; schedule: Q01DX009 (ip); vehicle: Klucel (hydroxypropylcellulose) (HPC); higher = longer survival
Method: The antitumor activity of compounds was measured in mice bearing transplantable tumors. Survival or tumor size were measured and the results are expressed as the measurement made in the treated group (T) divided by the measurement made in the vehicle treated control group (C). The tumor model used in this assay is L1210 Leukemia (intraperitoneal) in B6D2F1 (BDF1) mice
Toxic doses and inconclusive results are not listed.
property_measured: T/C

The cases that follow already have their T/C on record.
COC(=O)c1cc([N+](=O)[O-])cc([N+](=O)[O-])c1Br: 96 % of control
[Br][Hg][CH2]COC[CH2][Hg][Br]: 93 % of control
O=C1OC2CC3CC1C2C3 (centres undefined): 98 % of control

Kindly consider the entry below.
Recorded T/C for C[N+](C)(C)c1ccc(/C(C#N)=N/O)cc1 on L1210 leukemia ip in BDF1 mice, survival T/C was 101 % of control

Data provenance is PubChem BioAssay AID248.
